# tested.target: PDL1, Q9NZQ7
# Sequence (Q9NZQ7 whole entry): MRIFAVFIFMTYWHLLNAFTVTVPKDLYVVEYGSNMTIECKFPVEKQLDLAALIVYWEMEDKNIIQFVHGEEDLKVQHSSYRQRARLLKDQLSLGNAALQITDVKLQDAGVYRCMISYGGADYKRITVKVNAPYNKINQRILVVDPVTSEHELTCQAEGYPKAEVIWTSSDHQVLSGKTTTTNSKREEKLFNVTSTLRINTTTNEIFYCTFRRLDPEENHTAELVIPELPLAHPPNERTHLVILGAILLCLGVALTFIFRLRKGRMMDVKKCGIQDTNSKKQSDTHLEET
reported.metric: binding in a display sort

Observe how each entry below is paired with its result.
[
  {
    "binder": "d8r1_design_ppi_323_dldesign_0_cycle1_af2pred (protein) SALEEAKRAIAEARELAAEAKARGPAAAPAAAIAANAIAGAELLVELGSYEAATAVARAGIRVARAYLAAV",
    "binding in a display sort": "not found (inactive)"
  },
  {
    "binder": "d8r1_design_ppi_891_dldesign_0_cycle0_af2pred (protein) SAVREEAERKAEEVAELAKKDPEKGLEAMKAYLEELVAAGHREAALYAAARAASLMFSDPSTLETAIAVSRYAAELAA",
    "binding in a display sort": "not found (inactive)"
  },
  {
    "binder": "d8r1_design_ppi_414_dldesign_0_cycle0_af2pred (protein) MEEELKKIKELGKKAAKLAEEEGEEGFKKAIAELEKAAAEAAKGEKAKELQKLVGQGIIDVGKAAYKKEEKKEEELAK",
    "binding in a display sort": "not found (inactive)"
  },
  {
    "binder": "d8r1_design_ppi_136_dldesign_0_cycle1_af2pred (protein) SAAEEAARKSLFAVADSILAANLARAKAAAAAGDAAAAAAALQNTRDGGEMVTKMALARGDEETAAELAARFAAAAAEIAAILAA",
    "binding in a display sort": "not found (inactive)"
  }
]

Now take the following binder into account.
Entry d8r1_design_ppi_1045_dldesign_0_cycle0_af2pred (protein) SADTKEGADLFTKAAEQLLKVGEELLKKGKETGDEKLIKEALKYFEAAAAYAEAAATLAAKADAAAAAKAKELKEKAKKAAEEAKKAL — recorded binding in a display sort = not found (inactive)
